test: protein stability index of a GFP-peptide fusion (yeast GPS) (PSI 1-4); higher = more stable; sorted into four equal gates, so the index is relative within each strain; conditions: pdr5∆
Class membership depends on protein stability index alone; the intervals are low interval = under 2, middle interval = from 2 up to 3, high interval = 3 and over

sequenceInput: SEISIIDATLKEELLRD [RRP45]
category: middle interval

input: Consider TQDDFTTSVDVMLKGIV [SRP54] . To which protein stability index class does it belong?
output: middle interval

input: Form field 'band' for VGGCKDQIEKLREVVEL [RPT1]
output: high interval

input: Category of VSKKWAAAGVCEKWAAS [RPL14B] , please.
output: high interval

input: Please indicate the class for DNDRFNVVGKLISIISS [YML103C/NUP188] based on its protein stability index.
output: low interval

input: # classify by protein stability index band: QPTNFTTKRLWSEITES [MCD1]
output: middle interval

input: Consider IQSSLMTNLTYFLHLSV [YCS4] . To which protein stability index class does it belong?
output: low interval

====

test: protein stability index of a GFP-peptide fusion (yeast GPS) (PSI 1-4); higher = more stable; sorted into four equal gates, so the index is relative within each strain; conditions: doa10∆
Rule: protein stability index under 3 gives 0, otherwise 1.

sequenceInput: SGNGSNPNTNTNSNNTP [PGD1]
category: 0

sequenceInput: FLVEYEGQENNYNSTSR [SIR4]
category: 0

sequenceInput: WYEASTWIQQFKSTMLQ [ARP7]
category: 0

sequenceInput: ILMQQQMMARMAQTATQ [SRP54]
category: 0

sequenceInput: CHSKLRGQQVENPTDNF [GRR1]
category: 0

input: Evaluate SPSYSPTSPSYSPTSPS [RPO21] : protein stability index at minimum 3?
output: 0

input: Tell me whether protein stability index is at least 3 here: APSIGRWYQLIATGCKD [YGL100W/SEH1]
output: 0

input: Is the recorded value of protein stability index equal to or greater than 3 for this sequence? QLPSKFTCSCNSLTVDG [RPN14]
output: 0

input: Please tell me: is the sequence SWRNITNLSGGEKTLSS [SMC4] at or over 3 in terms of protein stability index?
output: 1

input: Determine whether this sequence has protein stability index no lower than 3: FELIELVTPKSFLFDVL [NUT1]
output: 0

input: Confirm if protein stability index reported for the sequence SGTTNFMRNGLLEGLNE [UBP6] is 3 or above.
output: 0

input: Check the entry NYTGWKAISVGANTSAA [PRE9] : does protein stability index equal or exceed 3?
output: 0

====

assay: protein stability index of a GFP-peptide fusion (yeast GPS) (PSI 1-4); higher = more stable; sorted into four equal gates, so the index is relative within each strain; conditions: doa10∆
Entry flag: MET if protein stability index reaches 3; NOT MET if it does not.

Solved cases below.
sequenceInput: ASLQQQQQQDLQQQQQV [SNF6]
category: NOT MET

sequenceInput: KKAFTSYDRTLLIADSR [RPS16A]
category: NOT MET

sequenceInput: ESLSEEHASLLVRDSKP [MED8]
category: NOT MET

input: // inclusive: protein stability index at least 3? input: SPMGNAYSMGAQNQGGQ [PGD1]
output: NOT MET

input: Tell me whether protein stability index is at least 3 here: VKGTNISEKDLVPKRCL [RPO31]
output: NOT MET

input: Dear colleague, could you confirm whether VVESVGAEVDEARINEL [RPP2B] has protein stability index at or above 3?
output: MET

input: Please indicate if the recorded protein stability index for KQEIREAVELPLVQADL [RPT3] meets or exceeds 3.
output: MET

====

assay: protein stability index of a GFP-peptide fusion (yeast GPS) (PSI 1-4); higher = more stable; sorted into four equal gates, so the index is relative within each strain; conditions: san1∆
parameterMeasured: protein stability index

Some solved entries appear below for comparison.
sequenceInput: GEMERDCMIAHGAASFL [RPB2]
protein stability index: 3.04

sequenceInput: DYINELSNSNRFELHGD [REC8]
protein stability index: 3

sequenceInput: KKEENETISNVAKTAPN [SNF2]
protein stability index: 2.52

sequenceInput: LTESQTETYISDLVNQG [RPN5]
protein stability index: 3.12

sequenceInput: NELERNRKIYQFTLYDR [SMC3]
protein stability index: 2.31

sequenceInput: AAAEIADEPVKASLLLH [FAS2]
protein stability index: 2.75

Given item EFETPTFLVSNDDEVSQ [RPN14] , the value recorded as its protein stability index is 2.72

Recorded protein stability index (sequence NEKIEKRSDLTGANSIY [UBP6] ): 3.06

====

test: protein stability index of a GFP-peptide fusion (yeast GPS) (PSI 1-4); higher = more stable; sorted into four equal gates, so the index is relative within each strain; settings: san1∆
Given measured protein stability index, output met if it is greater than or equal to 3 and not met if not.

sequenceInput: GKGRQSAKAELEKLVDH [PRE10]
category: not met
--
sequenceInput: VVVVLEEPSASIMVELK [SIR3]
category: met
--
sequenceInput: SEVQRTMLELLNQLDGF [RPT6]
category: not met
--
sequenceInput: LPELWALLNFVLPKIFN [SNF2]
category: not met
--
sequenceInput: NESWKSSFEKFNDSQAI [SRP72]
category: not met
--
sequenceInput: MKRNCGQIITLFSSRRL [RMP1]
category: not met
--
sequenceInput: LESKMSEVGDAFIFGLQ [SMC3]
category: met
--
sequenceInput: LAEKVEKASRQQRKQKK [RPS24A]
category: met

input: State whether the measured protein stability index reaches 3, counting equality as reaching it, for DDEDEDDSDNVMSSDDE [PRE10]
output: met

input: Answer whether protein stability index of FNFGGKSDTVTSASQPF [YOR098C/NUP1] is greater than or equal to 3.
output: not met

====

test: protein stability index of a GFP-peptide fusion (yeast GPS) (PSI 1-4); higher = more stable; sorted into four equal gates, so the index is relative within each strain; settings: ubr1∆
Threshold rule: protein stability index greater than or equal to 2 is rule met; below that, rule not met.

Check out these entries, answers already filled in.
sequenceInput: DVFDTLATYCPRVQGFY [GRR1]
category: rule met

sequenceInput: FCGKKTVKRGAAGIWTC [RPL43A]
category: rule not met

input: Given the entry SNAFYSVLRDTLVAQNL [SMC4] , answer whether its protein stability index meets or surpasses 2.
output: rule met

input: Dear colleague, could you confirm whether FNLNLPPSSFGRSHTRN [REC8] has protein stability index at or above 2?
output: rule met

input: In plain terms: is recorded protein stability index at least 2 for ASHNEKDQDSQIELSCN [SRP72] ?
output: rule met

input: Identify whether the reported protein stability index of the following sequence is 2 or greater: EPYVAYGYPSYSTIRQL [RPL7A]
output: rule met

input: Say whether ELAQDPQTMEHYKQQIA [YCS4] shows protein stability index of 2 or more.
output: rule met

input: Confirm if protein stability index reported for the sequence EVVSEAINIMNRSNDAL [FAS2] is 2 or above.
output: rule met

input: Can VHNTNSFIISSLDTLEL [NUT1] be said to have protein stability index at or above 2?
output: rule met

input: Check this sequence for protein stability index at or above 2: VVLFNRQPSLHRLSILS [RPO31]
output: rule not met

input: Check if protein stability index >= 2 (inclusive). Item: LKPEIEKLTSKSLDEQL [LRP1]
output: rule met

====

test: protein stability index of a GFP-peptide fusion (yeast GPS) (PSI 1-4); higher = more stable; sorted into four equal gates, so the index is relative within each strain; details: san1∆
Lab note: compare protein stability index against 3. Equal or greater, write T. Smaller, write F.

Example results:
sequenceInput: ISSRTFGQRAVLKFAAH [RPS0A]
category: F
//
sequenceInput: QQQLRNQIQRQQQQQFR [SNF5]
category: F
//
sequenceInput: QIANEFNTQQGIKKHSL [YDL116W/NUP84]
category: T
//
sequenceInput: LADWRIRPLSKPMTAYA [RRP6]
category: F
//
sequenceInput: ATSFSRKKARTFDSSWN [FAS2]
category: F

input: Item MEDIEKIKPYVRSFSKA [LRP1] with protein stability index of 3 or above?
output: F

input: # bool: protein stability index of VNTTRRFQYSDDEPAEK [YMR129W/POM152] >= 3
output: F

input: In plain terms: is recorded protein stability index at least 3 for VLEERERGQKVKNVKNS [ARP9] ?
output: F

input: I'd appreciate it if you could say whether DDENNPSHYPHPYEYEI [RRP6] has protein stability index at least equal to 3.
output: F

input: Has YASFNDTFVHVTDLSGK [RPS14B] a recorded protein stability index greater than or equal to 3?
output: F

input: Record KDKLREFIPHSTEYMMQ [RPN6] ; criterion: protein stability index no lower than 3. Met?
output: F

input: Is the recorded value of protein stability index equal to or greater than 3 for this sequence? GLMLGEFVDDYTVNVVD [RPN11]
output: T
